# measured on: human TLR8 (Homo sapiens (Human))
# Sequence (Q9NR97 27-1041): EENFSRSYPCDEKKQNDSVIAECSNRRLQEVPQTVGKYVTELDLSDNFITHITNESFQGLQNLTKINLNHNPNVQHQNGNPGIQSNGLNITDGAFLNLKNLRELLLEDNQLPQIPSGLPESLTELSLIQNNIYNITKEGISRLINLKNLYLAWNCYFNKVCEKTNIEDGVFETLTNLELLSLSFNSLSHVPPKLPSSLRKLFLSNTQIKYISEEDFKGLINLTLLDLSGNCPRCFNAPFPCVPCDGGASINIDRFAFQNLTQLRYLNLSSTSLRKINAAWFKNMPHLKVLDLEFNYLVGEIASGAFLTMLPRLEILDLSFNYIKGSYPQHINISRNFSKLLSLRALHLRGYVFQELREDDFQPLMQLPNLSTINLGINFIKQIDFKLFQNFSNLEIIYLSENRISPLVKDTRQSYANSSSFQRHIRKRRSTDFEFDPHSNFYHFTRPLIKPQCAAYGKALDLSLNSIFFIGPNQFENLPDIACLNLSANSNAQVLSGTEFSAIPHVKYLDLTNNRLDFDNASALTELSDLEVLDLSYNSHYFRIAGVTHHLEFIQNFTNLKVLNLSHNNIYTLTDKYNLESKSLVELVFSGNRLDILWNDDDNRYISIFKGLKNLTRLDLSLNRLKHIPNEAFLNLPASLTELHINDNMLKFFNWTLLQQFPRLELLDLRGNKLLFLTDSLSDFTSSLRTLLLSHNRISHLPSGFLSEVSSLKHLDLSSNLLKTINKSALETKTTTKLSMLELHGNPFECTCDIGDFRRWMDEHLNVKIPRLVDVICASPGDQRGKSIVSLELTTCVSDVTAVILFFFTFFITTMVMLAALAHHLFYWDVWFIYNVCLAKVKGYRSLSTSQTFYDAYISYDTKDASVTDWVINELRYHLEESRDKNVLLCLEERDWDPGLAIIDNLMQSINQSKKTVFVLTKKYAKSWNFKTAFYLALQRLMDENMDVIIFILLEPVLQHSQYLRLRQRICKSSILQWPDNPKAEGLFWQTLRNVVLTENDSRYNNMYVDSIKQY
# procedure details: TLR8 inhibition reporter assay (HEK-Blue SEAP);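 note: SEAP driven by IFN-β minimal promoter carrying NF-κB and AP-1 sites, compounds dosed 0.05 nM to 50 µM for 22 h, inhibition scaled between agonist-plus-DMSO and reference-inhibitor wells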
# assay context: read-out: TLR8 IC50; HEK-Blue cells overexpressing human TLR8, SEAP reporter, R848 15.9 μM
measured endpoint: IC50 (nM)
Quick note: give the figure in nM, leave out the unit.

{"compound": "Cc1c(-c2[nH]c3ccc(CCC4CN(C5COC5)C4)nc3c2C(C)C)cn2ncnc2c1C [Example 687]", "measurement unit": "nM", "IC50": 16}
{"compound": "Cc1c(-c2[nH]c3cc(F)c(C4CCC(NC5CCOCC5)CC4)nc3c2C(C)C)cn2ncnc2c1C (stereo not shown) [Example 504]", "measurement unit": "nM", "IC50": 0.64}

Supply reported IC50 belonging to this compound: COc1cc(-c2[nH]c3cc(C)c(C(=O)N(C)CCN(C)C)nc3c2C(C)C)cn2ncnc12 [Example 732]
70

Specify measured IC50 for Cc1cc(-c2[nH]c3cc(F)c(C4CCN(C5COC5)CC4)nc3c2C(C)C)cn2ncnc12 [Example 588] .
42

Note IC50 for the compound shown: Cc1c(-c2[nH]c3cc(F)c(C4CCC(NC5CCOCC5)CC4)nc3c2C(C)C)cn2ncnc2c1C (stereo not shown) [Example 505]
4.9

Please look at this compound and report its IC50: Cc1cc(-c2[nH]c3ccc(C4CNCCO4)nc3c2C(C)C)cn(C)c1=O (stereo not shown) [Example 679]
5.8

Fill in reported IC50 for this entry: COc1cc(-c2[nH]c3ccc(C4CCC(NC(C)C)C4)nc3c2C(C)C)cn2ncnc12 (stereo not shown) [Example 723]
2.4

State its IC50: COc1cc(-c2[nH]c3ccc(CCN4CCCCC4)nc3c2C(C)C)cn2ncnc12 [Example 682]
24
